system: DeltatarO mutant; assay: S. aureus survival, RN4220 and DeltatarO strains – OD600, teichoic acid synthesis inhibitors, primary screen (AID 463173); settings: S. aureus RN4220 wild type/DeltatarO growth, OD600, 18 h, screened at 18.75 µg/mL (by protocol)
The campaign covered roughly 52,000 compounds. About 4,300 (8.3%) were called active. No stated cut-off is given here; in the data, active means survival mostly below about 52% (no sharp cut-off); inactive means mostly above about 56%. The full list was thinned out, with actives kept by preference.
Result category, one only: active, inactive

Query: Look up the recorded call for CC1CN(C(=O)N2CCC(C(=O)NC3CCCCCC3)CC2)c2cc(Cl)ccc2O1 (stereo not given) in this test.
Result: inactive

Query: Please let me know the test result on file for CCOCN(C(=O)Cn1c(C(C)O)nc2ccccc21)c1c(C)cccc1CC (stereo not given) .
Result: inactive

Query: What outcome does the record of this test show for CCc1ccccc1NC(=O)Cn1c(=O)n(CCc2ccccc2)c(=O)c2ccccc21 ?
Result: inactive

Query: Hi, sorry to bother you, what did the test record for CCOc1ccc(CCNC(=O)c2cccc(-n3c(C)nc4cccnc43)c2C)cc1 ?
Result: inactive

Query: Please state the recorded outcome for this compound: CCCCc1nc2ccccc2n1CC(=O)N(COCC)c1c(C)cccc1CC
Result: active
